Assay: Polarity of lipids
Format: physicochemical
Settings: further lipids, polarity of ≧30 mN/m
measuredProperty: Polarity mN/m (mN/m)
API: value field is a number in mN/m; no unit string.

Some entries whose results are on file:
- CCCCCCCCOC(=O)CCCCCCCCCCCCCCC(C)C [Octyl Isostearate]: 31.6
- CCCCCCCCCCCCCCCCCC(C)C: 41.9
- CCCCCCCCCCCCCC(C)C: 43.8
- CC(CCOC(=O)CC(C)CC(C)(C)C)CC(C)(C)C (stereo not drawn) [Trimethylhexyl Isononanoate]: 31.1
- CCCCC(CC)COC(=O)CCCCCC(C)C (stereo not drawn) [2-Ethylhexyl Isononanoate]: 31.0

Consider the additional compound presented here.
Note Polarity mN/m for the compound shown: CCCCCCCC/C=C\CCCCCCCC(=O)OCCOCCOCC [Ethoxydiglycol Oleate] 40.5
